protocol_conditions: 303.15 K; 101.33 kPa; Liquid; Vibrating tube method
readout: mass density (kg/m3)

{"compound": "CC(C)O [propan-2-ol]", "unit_abbrev": "kg/m3", "mass density": 776.718}
{"compound": "CCC(C)O (stereo unspecified) [butan-2-ol]", "unit_abbrev": "kg/m3", "mass density": 798.513}
{"compound": "CCCCC(C)O (stereo unspecified) [2-hexanol]", "unit_abbrev": "kg/m3", "mass density": 806.225}
{"compound": "CCCCCCC(C)O (stereo unspecified) [2-octanol]", "unit_abbrev": "kg/m3", "mass density": 812.768}

I: CCCC(C)O (stereo unspecified) [pentan-2-ol]
II: ClCCCl [1,2-dichloroethane]
Q) Form: Entry with minimum mass density (choose one): I / II Give the label of your selection.
A) I

###

protocol_conditions: 298.15 K; 101.33 kPa; Liquid; Vibrating tube method
readout: mass density (kg/m3)

Worked examples, 2 compounds total:
{"compound": "CC(C)O", "unit_abbrev": "kg/m3", "mass density": 780.987}
{"compound": "CCCCC(C)O (stereo unspecified)", "unit_abbrev": "kg/m3", "mass density": 810.227}

a: CCC(C)O (stereo unspecified)
b: ClCCCl
Q) Compare a and b by numeric mass density and name the larger one. Give the label of your selection.
A) b

###

protocol_conditions: 293.15 K; 101.33 kPa; Liquid; Vibrating tube method
readout: mass density (kg/m3)

a: CCC(C)O (stereo unspecified)
b: ClCCCl
Q) Compare a and b by numeric mass density and name the larger one. Give the label of your selection.
A) b

###

protocol_conditions: 308.15 K; 101.33 kPa; Liquid; Vibrating tube method
readout: mass density (kg/m3)

Worked examples, 2 compounds total:
{"compound": "CCC(C)O (stereo unspecified)", "measured_result": 794.218}
{"compound": "CCCCC(C)O (stereo unspecified)", "measured_result": 802.16}

I: ClCCCl
II: CCCCCCC(C)O (stereo unspecified)
Q) Form: Entry with minimum mass density (choose one): I / II Give the label of your selection.
A) II

###

protocol_conditions: 288.15 K; 101.33 kPa; Liquid; Vibrating tube method
readout: mass density (kg/m3)

Worked examples, 4 molecules total:
{"molecule": "CC(C)O [propan-2-ol]", "readout": "mass density", "unit_abbrev": "kg/m3", "measured_result": 789.337}
{"molecule": "CCCCC(C)O (stereo unspecified) [2-hexanol]", "readout": "mass density", "unit_abbrev": "kg/m3", "measured_result": 818.064}
{"molecule": "CCCCCCC(C)O (stereo unspecified) [2-octanol]", "readout": "mass density", "unit_abbrev": "kg/m3", "measured_result": 824.028}
{"molecule": "CCC(C)O (stereo unspecified) [butan-2-ol]", "readout": "mass density", "unit_abbrev": "kg/m3", "measured_result": 810.879}

1: ClCCCl [1,2-dichloroethane]
2: CCCC(C)O (stereo unspecified) [pentan-2-ol]
Q) Compare 1 and 2 by numeric mass density and name the larger one. Give the label of your selection.
A) 1
(1: 1259.99 kg/m3, 2: 813.272 kg/m3)

###

protocol_conditions: 313.15 K; 101.33 kPa; Liquid; Vibrating tube method
readout: mass density (kg/m3)

Worked examples, 4 compounds total:
{"compound": "CC(C)O [propan-2-ol]", "measured_result": 767.935}
{"compound": "CCC(C)O (stereo unspecified) [butan-2-ol]", "measured_result": 789.832}
{"compound": "CCCCC(C)O (stereo unspecified) [2-hexanol]", "measured_result": 798.04}
{"compound": "CCCCCCC(C)O (stereo unspecified) [2-octanol]", "measured_result": 805.079}

1: CCCC(C)O (stereo unspecified) [pentan-2-ol]
2: ClCCCl [1,2-dichloroethane]
Q) Compare 1 and 2 by numeric mass density and name the larger one. Give the label of your selection.
A) 2
